Exercise: state measured self-cleavage for each of the variants provided.
B1: CPEB3 Ribozyme (parent)
chain: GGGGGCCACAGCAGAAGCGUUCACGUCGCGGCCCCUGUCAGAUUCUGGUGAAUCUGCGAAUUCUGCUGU

Variants of: B1
Procedure text: self-cleavage, relative activity (ratio to wild type); higher = more cleavage; co-transcriptional

Here is how some variants turned out for self-cleavage.
A16C A51G :: 0.33
C22A G48U :: 0.162

// each listed variant needs a value for self-cleavage
1. C22G U67C
2. G25A U55G
3. G3U A8C

### Response
0.175
0.235
0.146

// each variant listed below needs its self-cleavage
1. C18G A40U
2. G25A U64C
3. U20A U36C
4. G11U C12A
5. A13G U46G
6. U38G U64G

### Response
0.167
0.14
0.149
0.549
0.979
0.25
